# target-or-test-system: human recombinant D2 receptor (Homo sapiens (Human))
# method-description: D2 receptor antagonism activity test (inhibition of dopamine-induced decrease of cAMP production, LANCE cAMP 384 Kit)
# condition-notes: read-out: D2 receptor antagonism (IC50, mol/L), HEK293 cells expressing human recombinant D2 receptor, 0.1 nM-10000 nM
Where a name gives a salt, the structure may show the parent alone.
observable: IC50
# answer = value followed by unit

O=c1[nH]c(CCN2CCN(c3cccc4sccc34)CC2)nc2ccccc12    216 nM
c1ccc2[nH]c(CN3CCN(c4cccc5sccc45)CC3)nc2c1    101 nM
O=C1CSc2ccc(CCN3CCN(c4cccc5sccc45)CC3)cc2N1    92.7 nM
COC(CN1CCN(c2cccc3sccc23)CC1)c1cccc2c1OCC(=O)N2 (stereo not shown)    65.8 nM
O=C1Cc2cc(CCN3CCC(c4cccc5sccc45)CC3)c(Cl)cc2N1    51.9 nM

Consider the molecule shown here: CC(=O)n1cc(CCCCN2CCN(c3cccc4sccc34)CC2)c2cc(C#N)ccc21 What is its recorded IC50? 57.6 nM

Consider the molecule shown here: O=C1COc2ccc(CCCCN3CCN(c4cccc5sccc45)CC3)cc2N1 What is its recorded IC50? 30.2 nM

Consider the molecule shown here: O=C1CCc2ccc(CCN3CCC(c4cccc5sccc45)CC3)cc2N1 What is its recorded IC50? 10.4 nM

Consider the molecule shown here: O=C1COc2ccc(CCN3CCC(c4cccc5sccc45)CC3)cc2N1 What is its recorded IC50? 6.81 nM

Consider the molecule shown here: O=C1COc2c(F)cc(CCN3CCN(c4cccc5sccc45)CC3)cc2N1 What is its recorded IC50? 79.6 nM

Consider the molecule shown here: O=C1CCc2cc(CCCCN3CCC(c4cccc5sccc45)CC3)ccc2N1 What is its recorded IC50? 98.8 nM

Consider the molecule shown here: O=C1CCc2cc(CCCCN3CCN(c4cccc5sccc45)CC3)ccc2N1 What is its recorded IC50? 23.9 nM

Consider the molecule shown here: O=C1Cc2cc(CCN3CCN(c4cccc5sc(F)cc45)CC3)ccc2N1 What is its recorded IC50? 3.87 nM

Consider the molecule shown here: c1cc(N2CCN(CCCCc3nnnn3C3CCCCC3)CC2)c2ccsc2c1 [Compound of example 138, hydrochloride] What is its recorded IC50? 9.4 nM

Consider the molecule shown here: O=C1CCc2cc(Cl)c(CCN3CCN(c4cccc5sccc45)CC3)cc2N1 What is its recorded IC50? 81.2 nM

###

Listed below: IC50 values for each entry.
# target-or-test-system: human recombinant D2 receptor (Homo sapiens (Human))
# method-description: D2 receptor antagonism activity test (inhibition of dopamine-induced decrease of cAMP production, LANCE cAMP 384 Kit)
# condition-notes: read-out: D2 receptor antagonism (IC50, mol/L), HEK293 cells expressing human recombinant D2 receptor, 0.1 nM-10000 nM
# output: bare number, implied unit nM

Completed entries (count: 5):
N#Cc1ccc2[nH]cc(CCN3CCN(c4cccc5sccc45)CC3)c2c1    243
Cl.O=c1ccc2ccc(CCN3CCN(c4cccc5sc(F)cc45)CC3)cc2[nH]1 [Compound of example 57, hydrochloride]    8.4
O=c1ccc2ccc(CCCCN3CCN(c4cccc5sccc45)CC3)cc2[nH]1    35.6
CC(=O)Nc1nc2c(CCN3CCN(c4cccc5sccc45)CC3)cccc2s1    216
O=c1ccc2ccc(CCN3CCN(c4cncc5sccc45)CC3)cc2[nH]1    241

Find IC50 (human recombinant D2 receptor (Homo sapiens (Human))) for the entry CC(=O)Nc1nc2cc(CCN3CCN(c4cccc5sccc45)CC3)ccc2s1 119

Find IC50 (human recombinant D2 receptor (Homo sapiens (Human))) for the entry CN1C(=O)CCc2ccc(CCN3CCN(c4cccc5sccc45)CC3)cc21 29.3

###

# Tested on: PCP-induced hyperactivity in mice
# method-description: In vivo efficacy test (PCP-induced high locomotor activity in mice)
# condition-notes: male ICR mice, oral administration 45 minutes before PCP 7 mg/kg i.p.; dose significantly reducing PCP-induced hyperactivity vs model group
Listed below: Effective dose values for each entry.
# output: bare number, implied unit mg/kg

Consider the compound shown here: O=C1CCc2cc(CCCCN3CCN(c4cccc5sc(F)cc45)CC3)ccc2N1 What is its recorded Effective dose? 3

Consider the compound shown here: Cn1c(=O)[nH]c2cc(CCN3CCN(c4cccc5sccc45)CC3)ccc21 What is its recorded Effective dose? 1

Consider the compound shown here: O=C1CCc2cc(CCN3CCN(c4cccc5sc(F)cc45)CC3)ccc2N1 What is its recorded Effective dose? 3

Consider the compound shown here: Cl.O=C1CCc2cc(CCN3CCN(c4cccc5sccc45)CC3)ccc2N1 What is its recorded Effective dose? 0.3

Consider the compound shown here: Cl.O=c1ccc2ccc(CCN3CCN(c4cccc5sc(F)cc45)CC3)cc2[nH]1 What is its recorded Effective dose? 1

Consider the compound shown here: O=c1[nH]c2ccc(CCN3CCN(c4cccc5sccc45)CC3)cc2[nH]1 What is its recorded Effective dose? 0.3

###

# target-or-test-system: human recombinant D2 receptor (Homo sapiens (Human), UniProt P14416)
# Sequence (P14416 whole entry): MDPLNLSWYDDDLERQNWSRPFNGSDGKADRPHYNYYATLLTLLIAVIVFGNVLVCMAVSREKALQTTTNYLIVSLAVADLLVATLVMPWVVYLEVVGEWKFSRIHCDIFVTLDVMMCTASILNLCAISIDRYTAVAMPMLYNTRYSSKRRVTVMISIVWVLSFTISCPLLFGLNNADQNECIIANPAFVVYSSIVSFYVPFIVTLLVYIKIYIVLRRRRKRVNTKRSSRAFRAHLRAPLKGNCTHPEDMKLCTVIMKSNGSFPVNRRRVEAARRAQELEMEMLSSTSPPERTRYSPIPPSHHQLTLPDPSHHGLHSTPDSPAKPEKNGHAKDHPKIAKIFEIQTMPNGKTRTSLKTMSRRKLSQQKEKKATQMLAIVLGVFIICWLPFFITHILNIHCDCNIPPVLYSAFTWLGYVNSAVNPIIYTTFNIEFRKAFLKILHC
# method-description: D2 receptor antagonism activity test (inhibition of dopamine-induced decrease of cAMP production, LANCE cAMP 384 Kit)
# condition-notes: read-out: D2 receptor antagonism (IC50, mol/L), HEK293 cells expressing human recombinant D2 receptor, 0.1 nM-10000 nM
observable: IC50 (µM)
# output: bare number, implied unit µM

Completed entries (count: 3):
Nc1nc2c(CCN3CCN(c4cccc5sccc45)CC3)cccc2s1    0.229
COc1cc2c(N3CCN(CCc4ccc5c(c4)CCC(=O)N5)CC3)cccc2s1    0.00806
O=C1Cc2cc(C(O)CN3CCN(c4cccc5sccc45)CC3)ccc2N1 (centres unmarked)    0.192

Consider the compound shown here: O=C1CCc2ccc(C(O)CCCCN3CCN(c4cccc5sccc45)CC3)cc2N1 (centres unmarked) What is its recorded IC50? 0.00454

Consider the compound shown here: COc1ccc2[nH]cc(CCCN3CCN(c4cccc5sccc45)CC3)c2c1 What is its recorded IC50? 0.543

Consider the compound shown here: O=C1CCc2cc(CCCCN3CCN(c4cccc5sc(F)cc45)CC3)ccc2N1 What is its recorded IC50? 0.00106

Consider the compound shown here: O=c1ccc2ccc(CCN3CCN(c4cc(F)cc5sccc45)CC3)cc2[nH]1 What is its recorded IC50? 0.106

Consider the compound shown here: Nc1nc2cc(CCN3CCN(c4cccc5sccc45)CC3)ccc2s1 What is its recorded IC50? 0.00597

###

# target-or-test-system: human recombinant 5-HT1A receptor (Homo sapiens (Human), UniProt P08908)
# Sequence (P08908 whole entry): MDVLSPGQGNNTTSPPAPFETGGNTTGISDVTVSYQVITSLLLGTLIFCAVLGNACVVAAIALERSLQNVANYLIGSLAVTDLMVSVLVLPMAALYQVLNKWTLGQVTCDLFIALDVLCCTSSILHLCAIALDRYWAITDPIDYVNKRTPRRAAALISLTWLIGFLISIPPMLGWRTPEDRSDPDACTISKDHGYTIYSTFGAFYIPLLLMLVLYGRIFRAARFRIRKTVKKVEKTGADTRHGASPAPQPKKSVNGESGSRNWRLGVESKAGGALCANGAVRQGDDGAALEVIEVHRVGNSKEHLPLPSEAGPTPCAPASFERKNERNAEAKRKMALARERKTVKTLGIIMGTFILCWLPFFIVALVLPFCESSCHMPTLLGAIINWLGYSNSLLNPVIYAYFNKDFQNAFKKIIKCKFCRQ
# method-description: 5-HT1A receptor agonism activity test (inhibition of cAMP production, LANCE cAMP 384 Kit)
# condition-notes: HEK293 cells expressing human recombinant 5-HT1A receptor; test concentration 0.1 nM-10000 nM; read-out: 5-HT1A receptor agonism (EC50, mol/L)
observable: pEC50
Here pEC50 is given on a logarithmic scale as minus log10 of the concentration in mol/L.

Completed entries (count: 5):
N#Cc1ccc2[nH]cc(CCCN3CCN(c4cccc5sccc45)CC3)c2c1 [Compound of example 108]    7.35
O=C1COc2ccc(CCN3CCN(c4cc(F)cc5sccc45)CC3)cc2N1 [Compound of example 78]    9.22
Cc1nc2ccc(CCCCCN3CCN(c4cccc5sccc45)CC3)cc2c(=O)[nH]1 [Compound of example 24]    7.59
COc1ccc2[nH]cc(CCCN3CCN(c4cccc5sccc45)CC3)c2c1 [Compound of example 106]    7.98
O=C1CCc2ccc(CCN3CCC(c4cccc5sccc45)CC3)cc2N1 [Compound of example 83]    8.31

Consider the molecule shown here: O=C1COc2ccc(CCN3CCC(c4cccc5sccc45)CC3)cc2N1 [Compound of example 97] What is its recorded pEC50? 9.65

Consider the molecule shown here: O=C1CCc2ccc(C(O)CCCCN3CCN(c4cccc5sccc45)CC3)cc2N1 (centres unmarked) [Compound of example 150] What is its recorded pEC50? 7.80

Consider the molecule shown here: O=C1Cc2cc(CCN3CCN(c4cc(F)cc5sccc45)CC3)ccc2N1 [Compound of example 84] What is its recorded pEC50? 9.63

###

# Test system: PCP-induced hyperactivity in mice
# method-description: In vivo efficacy test (PCP-induced high locomotor activity in mice)
# condition-notes: male ICR mice, oral administration 45 minutes before PCP 7 mg/kg i.p.; dose significantly reducing PCP-induced hyperactivity vs model group
Listed below: Effective dose values for each entry.
# answer = value followed by unit

Cl.O=C1COc2ccc(CCN3CCN(c4cccc5sccc45)CC3)cc2N1    0.3 mg/kg
c1ccc2c(CCN3CCN(c4cccc5sccc45)CC3)c[nH]c2c1    1 mg/kg
O=c1[nH]c2ccc(CCN3CCN(c4cccc5sccc45)CC3)cc2o1    0.3 mg/kg

Consider the compound shown here: CC(=O)N1CC(CCN2CCN(c3cccc4sccc34)CC2)c2ccccc21.Cl (stereo not shown) What is its recorded Effective dose? 3 mg/kg

Reference for the values: patent US10174011B2
